Source of measurements: ChEMBL document CHEMBL2203069

Target: Serine/threonine-protein kinase BRSK2 (Homo sapiens, UniProt Q8IWQ3)
Sequence (Q8IWQ3 whole entry): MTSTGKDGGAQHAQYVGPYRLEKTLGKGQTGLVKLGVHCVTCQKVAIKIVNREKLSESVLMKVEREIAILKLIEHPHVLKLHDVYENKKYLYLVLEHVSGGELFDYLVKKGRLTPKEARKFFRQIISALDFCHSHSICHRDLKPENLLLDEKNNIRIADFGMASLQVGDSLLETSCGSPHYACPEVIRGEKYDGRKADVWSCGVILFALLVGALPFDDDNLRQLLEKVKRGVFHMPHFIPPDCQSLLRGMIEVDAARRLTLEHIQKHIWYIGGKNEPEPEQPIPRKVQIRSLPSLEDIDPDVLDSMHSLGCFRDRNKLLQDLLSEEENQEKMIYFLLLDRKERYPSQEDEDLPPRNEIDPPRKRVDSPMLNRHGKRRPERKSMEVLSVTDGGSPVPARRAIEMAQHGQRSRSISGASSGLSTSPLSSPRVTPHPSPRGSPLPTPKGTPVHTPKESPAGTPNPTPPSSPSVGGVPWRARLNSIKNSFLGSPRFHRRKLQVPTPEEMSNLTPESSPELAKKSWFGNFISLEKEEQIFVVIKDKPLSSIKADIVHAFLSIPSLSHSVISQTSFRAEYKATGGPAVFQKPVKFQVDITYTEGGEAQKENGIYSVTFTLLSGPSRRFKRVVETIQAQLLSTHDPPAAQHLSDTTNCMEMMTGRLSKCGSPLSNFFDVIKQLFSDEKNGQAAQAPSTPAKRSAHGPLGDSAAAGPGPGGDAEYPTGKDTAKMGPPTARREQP
observation_type: pIC50
Just so you know, pIC50 here is -log10 of the concentration in molar units; reply with that number alone.

Prompt line: Send back Serine/threonine-protein kinase BRSK2 (Homo sapiens, UniProt Q8IWQ3) pIC50 of O=C(NCCCNc1nc(Nc2ccc(N3CCOCC3)cc2)ncc1C1CC1)C1CCC1 only.
Response line: 5.72

###

assay: Half life in CD-1 mouse at 1 mg/kg, iv; format: ADME, organism-based; set-up: dose 1 mg/kg, route intravenous; details: in vivo
observation_type: half-life
Number first, unit second.

Prompt line: Consider the compound Cn1cc(Nc2ncc(C3CC3)c(NCCCNC(=O)C3CCC3)n2)cn1 and give its recorded half-life.
Response line: 27 min

###

Target sequence: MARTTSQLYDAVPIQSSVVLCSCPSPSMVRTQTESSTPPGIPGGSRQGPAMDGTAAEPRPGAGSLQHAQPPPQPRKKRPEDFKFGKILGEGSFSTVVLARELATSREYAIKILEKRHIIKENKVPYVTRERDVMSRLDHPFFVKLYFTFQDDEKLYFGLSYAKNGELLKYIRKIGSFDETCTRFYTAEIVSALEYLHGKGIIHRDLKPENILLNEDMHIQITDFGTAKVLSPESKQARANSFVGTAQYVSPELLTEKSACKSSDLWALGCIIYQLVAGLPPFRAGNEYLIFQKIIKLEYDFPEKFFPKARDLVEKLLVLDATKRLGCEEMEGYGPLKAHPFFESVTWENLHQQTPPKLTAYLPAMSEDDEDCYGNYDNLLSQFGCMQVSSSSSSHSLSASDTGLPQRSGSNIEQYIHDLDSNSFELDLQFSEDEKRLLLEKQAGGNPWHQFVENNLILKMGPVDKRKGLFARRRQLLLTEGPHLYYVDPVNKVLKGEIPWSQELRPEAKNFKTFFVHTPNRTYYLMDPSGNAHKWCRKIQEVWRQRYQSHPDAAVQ
observation_type: IC50 (nM)
Please state the figure in nM; there is no need to write the unit.

Prompt line: Please give measured IC50 of the following entry: O=C(NCCCNc1nc(Nc2cccc(F)c2)ncc1Br)C1CCCC1
Response line: 220

Prompt line: Identify measured IC50 associated with O=C(NCCCNc1nc(Nc2cccc(F)c2)ncc1C1CC1)C1CCC1
Response line: 580

###

biological target: Serine/threonine-protein kinase TBK1 (Mus musculus, UniProt Q9WUN2); experiment: Inhibition of TBK1-mediated RANTES release in LPS-stimulated mouse RAW264.7 cells compound incubated for 30 mins prior LPS challenge measured after 6 hrs by ELISA; type: cell-based; details: read-out: IC50
Sequence (Q9WUN2 whole entry): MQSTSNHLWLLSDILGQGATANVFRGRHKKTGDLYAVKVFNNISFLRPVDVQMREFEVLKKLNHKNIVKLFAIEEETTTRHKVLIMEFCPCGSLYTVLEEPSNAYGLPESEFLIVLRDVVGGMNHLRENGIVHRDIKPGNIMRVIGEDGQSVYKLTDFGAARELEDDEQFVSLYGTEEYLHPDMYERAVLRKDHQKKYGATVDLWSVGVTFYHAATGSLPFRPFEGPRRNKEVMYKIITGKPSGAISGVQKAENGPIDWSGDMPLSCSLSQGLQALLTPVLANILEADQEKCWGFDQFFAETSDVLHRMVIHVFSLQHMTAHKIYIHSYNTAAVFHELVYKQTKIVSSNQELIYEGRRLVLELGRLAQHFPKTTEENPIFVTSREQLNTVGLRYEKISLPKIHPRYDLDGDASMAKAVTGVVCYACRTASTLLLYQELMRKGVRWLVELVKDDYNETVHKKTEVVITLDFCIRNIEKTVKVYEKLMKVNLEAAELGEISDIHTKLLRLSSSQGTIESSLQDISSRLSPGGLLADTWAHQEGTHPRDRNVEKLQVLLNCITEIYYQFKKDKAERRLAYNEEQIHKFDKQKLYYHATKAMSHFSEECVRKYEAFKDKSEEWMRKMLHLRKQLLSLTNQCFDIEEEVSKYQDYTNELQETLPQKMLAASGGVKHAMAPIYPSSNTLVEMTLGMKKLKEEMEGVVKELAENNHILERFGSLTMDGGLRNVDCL
Could you mark each record T if its IC50 falls strictly under 0.6 µM, and F if it equals or exceeds it?

Prompt line: IC50 under 0.6 µM? Item: O=C(NCCCNc1nc(Nc2cnn(C3CC3)c2)ncc1C1CC1)C1CCC1
Response line: T

Prompt line: Does the reported IC50 of the following molecule sit strictly below 0.6 µM? O=C(NCCCNc1nc(Nc2cnn(C3CCCC3)c2)ncc1C1CC1)C1CCC1
Response line: T

Prompt line: Determine whether this molecule shows IC50 lower than 0.6 µM (ties excluded): O=C(NCCCNc1nc(Nc2ccc(N3CCOCC3)nc2)ncc1C1CC1)C1CCC1
Response line: T

Prompt line: Could you please tell me whether IC50 recorded for O=C(NCCCNc1nc(Nc2cnn(C3CCOCC3)c2)ncc1C1CC1)C1CCC1 is less than 0.6 µM?
Response line: T

Prompt line: # check: IC50 < 0.6 µM for O=C(NCCCNc1nc(Nc2cccc(-c3cnco3)c2)ncc1C1CC1)C1CCC1
Response line: T

Prompt line: Report whether reported IC50 is lower than 0.6 µM (strictly) for CCn1cc(Nc2ncc(C3CC3)c(NCCCNC(=O)C3CCC3)n2)cn1
Response line: T

Prompt line: Report whether reported IC50 is lower than 0.6 µM (strictly) for O=C(NCCCNc1nc(Nc2cnn(CCN3CCOCC3)c2)ncc1C1CC1)C1CCC1
Response line: F

Prompt line: # strict comparison: is reported IC50 < 0.6 µM? input = Cn1ncc2cc(Nc3ncc(C4CC4)c(NCCCNC(=O)C4CCC4)n3)ccc21
Response line: T

Prompt line: Please check: IC50 for O=C(NCCCNc1nc(Nc2cccc(F)c2)ncc1C1CC1)C1CCC1 , strictly under 0.6 µM or not?
Response line: F

Prompt line: Please let me know if O=C(NCCCNc1nc(Nc2ccc(CN3CCCCC3)nc2)ncc1C1CC1)C1CCC1 shows IC50 below 0.6 µM.
Response line: F

Prompt line: Is it true that IC50 reported for Cc1nn(C)c2cc(Nc3ncc(C4CC4)c(NCCCNC(=O)C4CCC4)n3)ccc12 is less than 0.6 µM?
Response line: T

Prompt line: Decide: IC50 of O=C(NCCCNc1nc(Nc2cccc(N3CCOCC3)c2)ncc1C1CC1)C1CCC1 strictly below 0.6 µM?
Response line: T

Prompt line: Quick check: IC50 of CC(C)N1CCC(n2cc(Nc3ncc(C4CC4)c(NCCCNC(=O)C4CCC4)n3)cn2)CC1 under 0.6 µM?
Response line: F

Prompt line: Strictly below 0.6 µM: is that where IC50 of CC(C)n1cc(Nc2ncc(C3CC3)c(NCCCNC(=O)C3CCC3)n2)cn1 sits?
Response line: T

Prompt line: Confirm or reject: IC50 of O=C(NCCCNc1nc(Nc2ccc(-n3cncn3)cc2)ncc1C1CC1)C1CCC1 lies strictly below 0.6 µM
Response line: T

Prompt line: Is IC50 strictly under 0.6 µM for the entry O=C(NCCCNc1nc(Nc2cccc(Cn3cncn3)c2)ncc1C1CC1)C1CCC1 ?
Response line: T

Prompt line: Quick check: does O=C(NCCCNc1nc(Nc2ccc(N3CCOCC3)cc2)ncc1C1CC1)C1CCC1 have IC50 under 0.6 µM?
Response line: T

Prompt line: Determine if CN1CCC(c2ccc(Nc3ncc(C4CC4)c(NCCCNC(=O)C4CCC4)n3)cc2)CC1 shows IC50 strictly lower than 0.6 µM.
Response line: F

###

experiment: Metabolic stability in mouse liver microsomes assessed as compound turnover after 30 mins; type: ADME, Microsome; settings: read-out: Drug metabolism
Values of metabolised at 0.5 h greater than or equal to 40% map to criterion met; values below map to criterion not met.

Prompt line: Could you please find out whether O=C(NCCCNc1nc(Nc2ccc3c(c2)CN(C2CC2)CC3)ncc1C1CC1)C1CCC1 has metabolised at 0.5 h that meets 40% or exceeds it?
Response line: criterion met

Prompt line: Given O=C(NCCCNc1nc(Nc2ccc(-n3cncn3)cc2)ncc1C1CC1)C1CCC1 , state whether its metabolised at 0.5 h is at least 40%.
Response line: criterion not met

Prompt line: Item CC(C)N1CCC(n2cc(Nc3ncc(C4CC4)c(NCCCNC(=O)C4CCC4)n3)cn2)CC1 with metabolised at 0.5 h of 40% or above?
Response line: criterion met

Prompt line: Test whether the compound Cn1cc(Nc2ncc(C3CC3)c(NCCCNC(=O)C3CCC3)n2)cn1 records metabolised at 0.5 h of 40% or higher.
Response line: criterion not met

Prompt line: # check: metabolised at 0.5 h of O=C(NCCCNc1nc(Nc2ccc(N3CCOCC3)cc2)ncc1C1CC1)C1CCC1 is greater than or equal to 40%
Response line: criterion met

Prompt line: Quick check, metabolised at 0.5 h >= 40%? CN1CCC(c2ccc(Nc3ncc(C4CC4)c(NCCCNC(=O)C4CCC4)n3)cc2)CC1
Response line: criterion not met
